Molecular target: UniProt P35372
Sequence (P35372 whole entry): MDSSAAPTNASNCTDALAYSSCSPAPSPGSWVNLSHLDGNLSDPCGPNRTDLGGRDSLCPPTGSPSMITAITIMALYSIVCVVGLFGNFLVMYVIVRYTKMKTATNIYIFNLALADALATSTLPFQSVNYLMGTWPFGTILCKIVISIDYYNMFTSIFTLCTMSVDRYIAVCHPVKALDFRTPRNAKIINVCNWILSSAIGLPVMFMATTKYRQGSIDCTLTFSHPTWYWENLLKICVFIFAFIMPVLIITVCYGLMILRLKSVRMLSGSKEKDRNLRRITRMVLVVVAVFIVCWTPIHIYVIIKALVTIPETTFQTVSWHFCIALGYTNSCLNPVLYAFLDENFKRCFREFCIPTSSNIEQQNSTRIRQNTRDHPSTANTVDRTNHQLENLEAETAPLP
Assay: DRUGMATRIX: Opiate mu (OP3, MOP) radioligand binding (ligand: [3H] Diprenorphine)
Format: cell membranes, CHO-K1, Membrane
Conditions: cho-k1; Not Active = under 50% inhibition at 10 µM
reported.metric: IC50

OC[C@H]1O[C@@H]2O[C@H]3[C@H](O)[C@@H](O)[C@@H](O[C@H]4[C@H](O)[C@@H](O)[C@@H](O[C@H]5[C@H](O)[C@@H](O)[C@@H](O[C@H]6[C@H](O)[C@@H](O)[C@@H](O[C@H]7[C@H](O)[C@@H](O)[C@@H](O[C@H]1[C@H](O)[C@H]2O)O[C@@H]7CO)O[C@@H]6CO)O[C@@H]5CO)O[C@@H]4CO)O[C@@H]3CO :: Not Active
CCCCCCNC(=O)n1cc(F)c(=O)[nH]c1=O :: Not Active

* * *

Target: UniProtKB P00533
Sequence (P00533 whole entry): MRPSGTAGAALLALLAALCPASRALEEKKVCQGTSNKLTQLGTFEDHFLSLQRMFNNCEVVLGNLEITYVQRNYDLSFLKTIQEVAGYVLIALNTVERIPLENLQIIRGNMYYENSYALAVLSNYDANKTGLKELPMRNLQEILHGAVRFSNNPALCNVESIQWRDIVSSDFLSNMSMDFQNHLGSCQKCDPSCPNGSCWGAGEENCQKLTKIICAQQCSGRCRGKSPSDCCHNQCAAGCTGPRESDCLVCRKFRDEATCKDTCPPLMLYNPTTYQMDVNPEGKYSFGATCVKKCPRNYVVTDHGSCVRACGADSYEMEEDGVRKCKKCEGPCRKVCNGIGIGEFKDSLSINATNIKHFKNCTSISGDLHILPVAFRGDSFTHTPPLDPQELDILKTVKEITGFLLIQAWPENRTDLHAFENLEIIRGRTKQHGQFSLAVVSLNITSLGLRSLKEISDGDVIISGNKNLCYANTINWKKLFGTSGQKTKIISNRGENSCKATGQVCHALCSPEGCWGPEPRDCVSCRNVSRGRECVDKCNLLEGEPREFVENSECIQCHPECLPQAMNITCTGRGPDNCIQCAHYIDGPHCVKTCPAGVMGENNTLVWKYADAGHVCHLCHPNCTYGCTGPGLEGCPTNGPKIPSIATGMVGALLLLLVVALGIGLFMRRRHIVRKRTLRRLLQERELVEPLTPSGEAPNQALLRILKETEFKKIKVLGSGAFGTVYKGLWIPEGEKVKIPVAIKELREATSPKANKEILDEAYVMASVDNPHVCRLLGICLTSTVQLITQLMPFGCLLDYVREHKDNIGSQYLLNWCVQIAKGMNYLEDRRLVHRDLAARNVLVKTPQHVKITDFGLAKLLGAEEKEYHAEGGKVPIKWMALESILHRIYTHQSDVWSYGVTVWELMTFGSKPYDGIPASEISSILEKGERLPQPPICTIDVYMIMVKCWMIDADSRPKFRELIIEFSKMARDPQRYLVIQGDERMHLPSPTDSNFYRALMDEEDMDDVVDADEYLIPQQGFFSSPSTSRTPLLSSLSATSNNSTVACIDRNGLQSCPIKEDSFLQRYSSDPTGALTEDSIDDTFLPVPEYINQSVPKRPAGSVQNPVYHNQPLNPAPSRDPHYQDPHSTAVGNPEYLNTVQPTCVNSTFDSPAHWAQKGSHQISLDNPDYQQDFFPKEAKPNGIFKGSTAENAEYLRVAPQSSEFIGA
Experiment: DRUGMATRIX: Protein Tyrosine Kinase, EGF Receptor enzyme inhibition (substrate: Poly(Glu:Tyr))
Type: cell-based, Insect cells
Details: insect cells; Not Active = under 50% inhibition at 10 µM
reported.metric: IC50

// worked examples, IC50 included
CCC1(c2ccccc2)C(=O)NC(=O)NC1=O :: Not Active
Cc1ccnc(NS(=O)(=O)c2ccc(N)cc2)n1 :: Not Active
Cc1cnc(NC(=O)C2=C(O)c3ccccc3S(=O)(=O)N2C)s1 :: Not Active
Cc1cccc(C)c1NC(=O)C(C)N (stereo not given) [TOCAINIDE] :: Not Active
CCOc1cc(N)c(Cl)cc1C(=O)NCC1CN(Cc2ccc(F)cc2)CCO1 (stereo not given) [MOSAPRIDE] :: Not Active

Could you now consider this next compound?
Entry "CCC(C)(C)C(=O)O[C@H]1C[C@@H](C)C=C2C=C[C@H](C)[C@H](CC[C@@H]3C[C@@H](O)CC(=O)O3)[C@H]21" , system UniProtKB P00533: what IC50 was measured?
Not Active

* * *

Target: Alpha-1D adrenergic receptor (Homo sapiens, UniProt P25100); note: in other assays of this panel Not Active means under 50% inhibition at 10 µM
Sequence (P25100 whole entry): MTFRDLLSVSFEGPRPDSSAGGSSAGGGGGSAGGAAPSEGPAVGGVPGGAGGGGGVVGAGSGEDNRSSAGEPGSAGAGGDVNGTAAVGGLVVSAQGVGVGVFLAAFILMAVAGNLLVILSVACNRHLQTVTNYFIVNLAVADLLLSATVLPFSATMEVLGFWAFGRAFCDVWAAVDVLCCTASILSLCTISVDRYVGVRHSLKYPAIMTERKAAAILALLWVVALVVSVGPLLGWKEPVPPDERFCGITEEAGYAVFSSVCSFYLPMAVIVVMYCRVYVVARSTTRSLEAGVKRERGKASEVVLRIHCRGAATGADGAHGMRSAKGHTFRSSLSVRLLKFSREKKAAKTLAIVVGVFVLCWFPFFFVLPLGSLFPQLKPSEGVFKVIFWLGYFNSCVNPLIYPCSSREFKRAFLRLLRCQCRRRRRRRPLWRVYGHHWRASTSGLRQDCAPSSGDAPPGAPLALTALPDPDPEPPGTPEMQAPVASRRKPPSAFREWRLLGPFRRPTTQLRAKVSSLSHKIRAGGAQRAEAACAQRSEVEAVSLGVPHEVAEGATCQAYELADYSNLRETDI
Assay type: cell membranes, HEK293, Membrane
Details: hek293
reported.metric: IC50

// worked examples, IC50 included
O=C(OC[C@H]1O[C@@H](OC(=O)c2cc(O)c(O)c(OC(=O)c3cc(O)c(O)c(O)c3)c2)[C@H](OC(=O)c2cc(O)c(O)c(OC(=O)c3cc(O)c(O)c(O)c3)c2)[C@@H](OC(=O)c2cc(O)c(O)c(OC(=O)c3cc(O)c(O)c(O)c3)c2)[C@@H]1OC(=O)c1cc(O)c(O)c(OC(=O)c2cc(O)c(O)c(O)c2)c1)c1cc(O)c(O)c(OC(=O)c2cc(O)c(O)c(O)c2)c1 :: Not Active
CN(Cc1cc(Br)cc(Br)c1N)C1CCCCC1 :: Not Active
OC[C@@H](O)[C@@H](O)[C@H](O)[C@H](O)CO :: Not Active
O=c1[nH]cnc2c1ncn2[C@H]1CC[C@@H](CO)O1 :: Not Active
C[C@]12CCC(=O)C[C@@H]1CC[C@@H]1[C@@H]2CC[C@]2(C)[C@@H](O)CC[C@@H]12 :: Not Active
C[C@H](C(=O)O)c1ccc2oc(-c3ccc(F)cc3)nc2c1 :: Not Active
CC[C@H](C)C(=O)O[C@H]1CCC=C2C=C[C@H](C)[C@H](CC[C@@H]3C[C@@H](O)CC(=O)O3)[C@H]21 :: Not Active
CCO :: Not Active

IC50 lookup needed for "CC[C@@]1(O)C(=O)OCc2c1cc1n(c2=O)Cc2cc3c(CN(C)C)c(O)ccc3nc2-1" , thanks.
Not Active

IC50 lookup needed for "OC[C@H]1OC2C3[C@@H](CO)OC(O[C@H]4[C@H](O)[C@@H](O)[C@@H](O[C@H]5[C@H](O)[C@@H](O)[C@@H](O[C@H]6[C@H](O)[C@@H](O)[C@@H](O[C@H]7[C@H](O)[C@@H](O)[C@@H](O[C@H]8[C@H](O)[C@@H](O)[C@@H](O[C@H]9[C@H](O)[C@@H](O)C(OC1[C@H](O)[C@H]2O)O[C@@H]9CO)O[C@@H]8CO)O[C@@H]7CO)O[C@@H]6CO)O[C@@H]5CO)O[C@@H]4CO)[C@H](O)[C@H]3O" , thanks.
Not Active

* * *

Target: Cytochrome P450 2C9 (Homo sapiens); note: in other assays of this panel Not Active means under 50% inhibition at 10 µM
Sequence (P11712 whole entry): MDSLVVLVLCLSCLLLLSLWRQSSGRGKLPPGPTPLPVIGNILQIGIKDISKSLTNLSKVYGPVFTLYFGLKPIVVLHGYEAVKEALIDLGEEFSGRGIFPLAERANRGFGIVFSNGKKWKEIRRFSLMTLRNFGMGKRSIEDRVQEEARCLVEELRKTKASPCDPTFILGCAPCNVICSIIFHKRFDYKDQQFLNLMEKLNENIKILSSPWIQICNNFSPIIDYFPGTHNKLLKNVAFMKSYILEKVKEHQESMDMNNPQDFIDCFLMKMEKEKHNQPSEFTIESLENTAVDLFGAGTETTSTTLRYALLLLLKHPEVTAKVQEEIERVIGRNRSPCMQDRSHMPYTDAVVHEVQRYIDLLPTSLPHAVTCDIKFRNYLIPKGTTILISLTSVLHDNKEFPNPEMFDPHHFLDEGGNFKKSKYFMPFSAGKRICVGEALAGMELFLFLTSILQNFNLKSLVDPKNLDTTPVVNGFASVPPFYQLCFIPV
Conditions: bti-tn-5b1-4
reported.metric: Ki

Cc1cccc(C)c1NC(=O)C(C)N (stereo not given) [TOCAINIDE] :: Not Active
CCC1(c2ccccc2)C(=O)NC(=O)NC1=O [PHENOBARBITAL] :: Not Active
CO[C@H]1O[C@@H]2O[C@@]3(C)CC[C@H]4[C@H](C)CC[C@@H]([C@H]1C)[C@@]24OO3 :: Not Active
CN(C)CCC=C1c2ccccc2COc2ccccc21 [DOXEPIN] :: Not Active

Could you now consider this next compound?
Ki lookup needed for O=C1c2ccccc2C(=O)C1c1ccccc1 [PHENINDIONE] , thanks.
Not Active

* * *

Molecular target: Acetylcholinesterase (Homo sapiens, UniProt P22303)
Sequence (P22303 whole entry): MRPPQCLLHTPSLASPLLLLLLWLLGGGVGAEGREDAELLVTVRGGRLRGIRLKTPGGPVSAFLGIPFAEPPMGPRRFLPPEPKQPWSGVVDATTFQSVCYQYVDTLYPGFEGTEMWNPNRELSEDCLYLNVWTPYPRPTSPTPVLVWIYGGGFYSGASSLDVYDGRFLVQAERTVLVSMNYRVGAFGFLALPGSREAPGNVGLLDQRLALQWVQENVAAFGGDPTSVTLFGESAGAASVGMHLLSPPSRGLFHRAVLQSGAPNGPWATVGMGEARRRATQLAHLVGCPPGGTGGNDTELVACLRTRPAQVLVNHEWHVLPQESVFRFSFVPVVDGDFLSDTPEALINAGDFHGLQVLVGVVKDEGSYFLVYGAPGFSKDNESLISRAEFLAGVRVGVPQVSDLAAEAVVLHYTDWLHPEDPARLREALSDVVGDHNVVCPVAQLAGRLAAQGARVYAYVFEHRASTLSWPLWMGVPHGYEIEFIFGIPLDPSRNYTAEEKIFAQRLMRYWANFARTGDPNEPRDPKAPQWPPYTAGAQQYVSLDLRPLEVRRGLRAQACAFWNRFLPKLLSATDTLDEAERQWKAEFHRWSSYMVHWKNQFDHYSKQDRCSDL
Assay: DRUGMATRIX: Acetylcholinesterase enzyme inhibition (substrate: acetylthiocholine)
Format: cell-based, HEK293
Settings: hek293; Not Active = under 50% inhibition at 10 µM
reported.metric: IC50

// worked examples, IC50 included
OC[C@H]1O[C@@H]2O[C@H]3[C@H](O)[C@@H](O)[C@@H](O[C@H]4[C@H](O)[C@@H](O)[C@@H](O[C@H]5[C@H](O)[C@@H](O)[C@@H](O[C@H]6[C@H](O)[C@@H](O)[C@@H](O[C@H]7[C@H](O)[C@@H](O)[C@@H](O[C@H]8[C@H](O)[C@@H](O)[C@@H](O[C@H]1[C@H](O)[C@H]2O)O[C@@H]8CO)O[C@@H]7CO)O[C@@H]6CO)O[C@@H]5CO)O[C@@H]4CO)O[C@@H]3CO :: Not Active
C[C@]12CCC(=O)C[C@@H]1CC[C@@H]1[C@@H]2CC[C@]2(C)[C@@H](O)CC[C@@H]12 :: Not Active
Cc1ccc(Cl)c(Nc2ccccc2C(=O)O)c1Cl :: Not Active
C[C@]12CC[C@@H](O)C[C@@H]1CC[C@@H]1[C@@H]2CC[C@]2(C)C(=O)CC[C@@H]12 :: Not Active
O=c1[nH]cnc2c1ncn2[C@H]1CC[C@@H](CO)O1 :: Not Active

IC50 lookup needed for "CCC(C)(C)C(=O)O[C@H]1C[C@@H](C)C=C2C=C[C@H](C)[C@H](CC[C@@H]3C[C@@H](O)CC(=O)O3)[C@H]21" , thanks.
Not Active

IC50 lookup needed for COc1ccc(Cl)cc1C(=O)NCCc1ccc(S(=O)(=O)NC(=O)NC2CCCCC2)cc1 [GLYBURIDE] , thanks.
Not Active

IC50 lookup needed for NS(=O)(=O)c1cc(C(=O)O)c(NCc2ccco2)cc1Cl [FUROSEMIDE] , thanks.
Not Active

IC50 lookup needed for "CC(=O)Nc1ccc2c(c1)Cc1ccccc1-2" , thanks.
Not Active

IC50 lookup needed for "Cc1[nH]c(=O)c(C#N)cc1-c1ccncc1" , thanks.
Not Active

IC50 lookup needed for CC(=O)O[C@]1(C(C)=O)CC[C@H]2[C@@H]3C[C@H](C)C4=CC(=O)CC[C@]4(C)[C@H]3CC[C@@]21C [MEDROXYPROGESTERONE ACETATE] , thanks.
Not Active

IC50 lookup needed for "Nc1nc(N)c2nc(CNc3ccc(C(=O)N[C@@H](CCC(=O)O)C(=O)O)cc3)cnc2n1" , thanks.
Not Active

IC50 lookup needed for "COC(=O)Nc1nc2ccc(Sc3ccccc3)cc2[nH]1" , thanks.
Not Active

IC50 lookup needed for "c1ccc(Cn2ccnc2)cc1" , thanks.
Not Active
